biological target: Aβ1-42 aggregation (Homo sapiens); construct: carried out with the synthetic Aβ1-42 peptide incubated with the extracts; test: Interaction matrices of Extract 1 with extracts and curcuminoids in the Aβ1-42 aggregation assay; type: biochemical
Sequence (P05067 672-713): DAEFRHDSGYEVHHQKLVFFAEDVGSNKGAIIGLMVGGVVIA
QUANTITY: IC50

In [3]: df
Out[3]:
                                   compound                       study_system  quantity      val
0  COc1cc(CCC(=O)CC(=O)CCc2ccc(O)c(OC)c2)ccc1O [THC, tetrahydrocurcumin]  Aβ1-42 aggregation (Homo sapiens)      IC50  95.3 µM

Source listed as patent US20100098788A1.
